- Tested On: Adenosine receptor A1 (Homo sapiens); further: assay procedure not described here
- Sequence (P30542 whole entry): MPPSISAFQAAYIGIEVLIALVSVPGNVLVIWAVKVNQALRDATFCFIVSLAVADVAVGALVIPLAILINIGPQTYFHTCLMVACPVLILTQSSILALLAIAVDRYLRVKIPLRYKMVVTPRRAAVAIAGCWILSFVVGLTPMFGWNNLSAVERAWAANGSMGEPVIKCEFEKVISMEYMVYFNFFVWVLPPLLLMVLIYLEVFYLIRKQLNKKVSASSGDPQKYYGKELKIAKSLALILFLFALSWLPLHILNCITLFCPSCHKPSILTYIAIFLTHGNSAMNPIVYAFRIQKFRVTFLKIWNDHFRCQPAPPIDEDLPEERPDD
Reported AC50 values are given for each entry in this list.

- Compound: "CC(=O)Oc1ccccc1C(=O)O"
  AC50: "> 30 µM"
- Compound: "CCN(CC)CC(=O)Nc1c(C)cccc1C"
  AC50: "> 30 µM"
- Compound: "N=C(N)NC(=O)c1nc(Cl)c(N)nc1N [AMILORIDE]"
  AC50: "> 30 µM"
- Compound: "COC(=O)[C@H]1[C@H]2C[C@@H]3c4[nH]c5ccccc5c4CCN3C[C@H]2C[C@@H](OC(=O)c2cc(OC)c(OC)c(OC)c2)[C@@H]1OC"
  AC50: "> 30 µM"
- Compound: "CN(Cc1ccc(C(C)(C)C)cc1)Cc1cccc2ccccc12"
  AC50: "> 10 µM"
- Compound: "CN(C)CCc1c[nH]c2ccc(CS(=O)(=O)N3CCCC3)cc12"
  AC50: "> 30 µM"
- Compound: "O=C(O)c1ccc2nc(-c3cc(Cl)cc(Cl)c3)oc2c1"
  AC50: "> 30 µM"
- Compound: "CN(C)CCOC(c1ccc(Cl)cc1)c1ccccn1 (stereo not drawn)"
  AC50: "> 30 µM"
- Compound: "Nc1c2c(nc3ccccc13)CCCC2O (stereo not drawn)"
  AC50: "> 30 µM"
- Compound: "CC(NC(C)(C)C)C(=O)c1cccc(Cl)c1 (stereo not drawn)"
  AC50: "> 30 µM"
- Compound: "Nc1nnc(-c2cccc(Cl)c2Cl)c(N)n1"
  AC50: "> 30 µM"
- Compound: "COC(=O)c1ccc2c(c1)NC(=O)/C2=C(\\Nc1ccc(N(C)C(=O)CN2CCN(C)CC2)cc1)c1ccccc1"
  AC50: "> 30 µM"
- Compound: "CC(C)NCC(O)COc1ccc(CC(N)=O)cc1 (stereo not drawn)"
  AC50: "> 30 µM"
- Compound: "CC(C(=O)O)c1ccc(C(=O)c2ccccc2)s1 (stereo not drawn)"
  AC50: "> 10 µM"
- Compound: "CCCCCCOC(=O)NC(=N)c1ccc(NCc2nc3cc(C(=O)N(CCC(=O)OCC)c4ccccn4)ccc3n2C)cc1 [DABIGATRAN ETEXILATE]"
  AC50: "> 30 µM"
- Compound: "CC(=O)SCC(Cc1ccccc1)C(=O)NCC(=O)OCc1ccccc1 (stereo not drawn)"
  AC50: "> 30 µM"
- Compound: "CN(C)CCC(O)(c1ccccc1)c1ccccc1Cl (stereo not drawn)"
  AC50: "> 10 µM"
- Compound: "Cc1nnc2n1-c1ccc(Cl)cc1C(c1ccccc1)=NC2"
  AC50: "> 30 µM"
- Compound: "OCCOCCN1CCN(C(c2ccccc2)c2ccc(Cl)cc2)CC1 (stereo not drawn) [HYDROXYZINE]"
  AC50: "> 30 µM"
- Compound: "CCOc1ccccc1OCCN[C@H](C)Cc1ccc(OC)c(S(N)(=O)=O)c1"
  AC50: "> 30 µM"
- Compound: "O=C(c1ccccc1)c1ccc2n1CCC2C(=O)O (stereo not drawn)"
  AC50: "> 10 µM"
- Compound: "CCCCOC(=O)c1ccc(N)cc1"
  AC50: "> 30 µM"
- Compound: "Cc1ccc(S(=O)(=O)NC(=O)N[C@H]2[C@H]3CC[C@@](C)([C@H]2O)C3(C)C)cc1 [GLIBORNURIDE]"
  AC50: "> 30 µM"
- Compound: "CC1=C(/C=C/C(C)=C/C=C/C(C)=C/C(=O)Oc2c(C)c(C)c3c(c2C)CCC(C)(CCCC(C)CCCC(C)CCCC(C)C)O3)C(C)(C)CCC1 (stereo not drawn)"
  AC50: "> 30 µM"
- Compound: "C[C@H](Cn1cnc2c(N)ncnc21)OCP(=O)(O)O [TENOFOVIR ANHYDROUS]"
  AC50: "> 30 µM"
- Compound: "CCn1c(=O)c2c(nc(/C=C/c3ccc(OC)c(OC)c3)n2C)n(CC)c1=O"
  AC50: "23 µM"
- Compound: "CN1C(=O)CN=C(c2ccccc2F)c2cc([N+](=O)[O-])ccc21"
  AC50: "> 30 µM"
- Compound: "CCCCCCCC(=O)CC[C@@H]1[C@@H](C/C=C\\CCCC(=O)O)[C@@H](O)C[C@H]1O"
  AC50: "> 30 µM"
- Compound: "COc1ccc(-n2nc(C(N)=O)c3c2C(=O)N(c2ccc(N4CCCCC4=O)cc2)CC3)cc1"
  AC50: "> 30 µM"
- Compound: "C=C(c1ccccc1OCc1cccc(Cl)c1)n1ccnc1"
  AC50: "> 30 µM"
- Compound: "NCC1(CC(=O)O)CCCCC1"
  AC50: "> 30 µM"
- Compound: "CCN(CCO)CCCC(C)Nc1ccnc2cc(Cl)ccc12 (stereo not drawn) [HYDROXYCHLOROQUINE]"
  AC50: "> 10 µM"
- Compound: "CC1(C)O[C@@H]2C[C@H]3[C@@H]4CCC5=CC(=O)C=C[C@]5(C)[C@@]4(F)[C@@H](O)C[C@]3(C)[C@]2(C(=O)CO)O1 [TRIAMCINOLONE ACETONIDE]"
  AC50: "> 30 µM"
- Compound: "CCN1C(=O)NC(c2ccccc2)C1=O (stereo not drawn)"
  AC50: "> 30 µM"
- Compound: "COc1nc(C)nc(Cl)c1N=C1NCCN1"
  AC50: "> 30 µM"
- Compound: "N=C(N)NC(=O)Cc1c(Cl)cccc1Cl"
  AC50: "> 30 µM"
- Compound: "CC(=O)OCC1=C(C(=O)O)N2C(=O)[C@@H](NC(=O)CSc3ccncc3)[C@H]2SC1"
  AC50: "> 10 µM"
- Compound: "C[C@H](CS)C(=O)N1CCC[C@H]1C(=O)O"
  AC50: "> 30 µM"
